All values here come from PubChem BioAssay.

EXPERIMENT SUMMARY: probe aWnt5a binding to arrayed compounds – biochemical, biotinylated probe, 635/667 nm fluorescence, primary screen (AID 1113);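 further: score merges 667 nm fluorescence intensity with signal-to-noise per printed feature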
CONDITION DESCRIPTION: small-molecule microarray, higher = more signal
Given measured composite z-score, output t if it is greater than or equal to -0.1 and f if not.

COMPOUND | CLASS LABEL
C=CCC(OC(C)=O)[C@@H]1[C@@H](N(Cc2cc3ccccc3o2)C(=O)c2cccc3ccccc23)c2cc(OCCCO)ccc2N1C(=O)c1ccc2ccccc2n1 (stereo not given in full) | t
C=C(CCCC)C(=O)CC[C@@H](OC(=O)c1ccccc1-c1ccccc1C(=O)O)c1ccccc1OCCO | t
COc1ccc(C(O)C2C=CC3C(=O)NC(=O)C3N2Nc2ccc(Cl)cc2Cl)c2ccccc12 (stereo not given) | f
CC1CC/C=C\[C@H]2OC34C=CCN(c5ccc6ccccc6c5)C(=O)[C@H]3N(C(C)CO)C(=O)[C@@H]4C2C(=O)O1 (stereo not given in full) | f
C[N+](C)(C)CCCC[C@@H]1NC(=O)[C@@H]2C[C@H](C(=O)NCc3ccc(F)cc3)[C@H](c3ccc(O)cc3)N2C1=O | f

###

Test system: Sonic hedgehog protein (Shh)
EXPERIMENT SUMMARY: Sonic hedgehog microarray binding compounds – biochemical, small-molecule microarray, 635/667 nm fluorescence, primary screen (AID 1151);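 further: Shh protein binding to compounds spotted on small-molecule microarray slides; score combines spot fluorescence intensity with signal-to-noise across triplicate slides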
CONDITION DESCRIPTION: 635 nm fluorescence, higher = more signal
Classify by measured composite z-score: condition met if it is equal to or exceeds 0.4, condition not met if it is smaller.

MOLECULE | CLASS LABEL
CC(C)OC(=O)CC(=O)CC(O)c1cccc([N+](=O)[O-])c1 (stereo unspecified) | condition not met
O=C1N(CCS(=O)(=O)c2ccccc2)c2ccccc2C[C@]12N=C(c1ccc(OCCCO)cc1)O[C@@H]2c1ccccc1 | condition not met
O=C1O[C@@H](c2ccccc2)[C@@H](c2ccccc2)N2[C@@H](c3ccc(OCCO)cc3)[C@]3(C(=O)Nc4ccc(C#CC5(O)CCCCCC5)cc43)[C@@H](C(=O)Nc3nc4ccccc4s3)[C@H]12 | condition met
COc1ccc([Si](C)(C)[C@H]2[C@H](CC(=O)N3Cc4ccccc4C[C@H]3CO)O[C@@]3(C(=O)N(C)c4c(Br)cc(C)cc43)[C@@H]2C)cc1 | condition met
CN(C)CCCNC(=O)[C@@]1(C)c2ccccc2C(=O)N(Cc2ccc(OC(F)(F)F)cc2)[C@H]1c1ccc(CO)cc1 | condition met
CC1CC/C=C\[C@H]2OC34C=CCN(c5ccc(Cl)cc5)C(=O)[C@H]3N(CCCCCCO)C(=O)[C@]4(C)C2C(=O)O1 (stereo partly specified) | condition not met

###

System: Fibrinogen (Alexa647-labelled)
EXPERIMENT SUMMARY: Alexa647-fibrinogen binding to printed small molecules – biochemical, small-molecule microarray, 635/667 nm fluorescence, artefact control for SMM control-protein annotation, profiling panel (AID 1131);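 further: z-score merges 667 nm fluorescence with per-spot signal-to-noise over triplicate slides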
CONDITION DESCRIPTION: fibrinogen-A647 binding fluorescence, higher = more signal
molecules and their reported composite z-score

MOLECULE | STUDY TARGET | composite z-score
C=CCOC(=O)[C@H]1[C@@H]2C(=O)O[C@@H](c3ccccc3)[C@@H](c3ccccc3)N2[C@@H](c2ccc(OCCOC(=O)[C@@H]3C[C@@H]4C(=O)N[C@@H](CCCCNC(C)=O)C(=O)N4[C@@H]3c3cccc(OCCO)c3)cc2)[C@]12C(=O)Nc1ccccc12 | Fibrinogen (Alexa647-labelled) | 0.276
CC(C)NC(=O)[C@@H]1c2ccccc2C(=O)N(Cc2ccccc2C(F)(F)F)[C@H]1c1ccc(CO)cc1 | Fibrinogen (Alexa647-labelled) | -0.55
[N-]=[N+]=Nc1ccccc1[C@@H]1OC(c2ccc(OCCCO)cc2)=N[C@]1(CCS(=O)(=O)c1ccccc1)C(=O)NCC(O)CO (some centres not stated) | Fibrinogen (Alexa647-labelled) | 0.911
CC(C)C(=C=CC[C@H](O)c1ccccc1OCCO)C[C@H](O)COCc1ccccc1 | Fibrinogen (Alexa647-labelled) | -0.513
CCOC(=O)C1=CCC(c2cc3ccccc3[nH]2)N(CCN2CC(C(=O)OCC)=CCC2c2cc3ccccc3[nH]2)C1 (configuration not stated) | Fibrinogen (Alexa647-labelled) | 0.974
O=C1C2C=CC(C(O)C3CCCCC3)N(n3cnnc3)C2C(=O)N1Cc1ccccc1 (configuration not stated) | Fibrinogen (Alexa647-labelled) | 0.983
COCC(=C=CC[C@H](O)c1ccccc1OCCO)C[C@H](O)COCc1ccccc1 | Fibrinogen (Alexa647-labelled) | 0.272

###

Below: a set of entries, each annotated with reported composite z-score.
STUDY TARGET: Follistatin-related protein 3 (Homo sapiens)
EXPERIMENT SUMMARY: compounds binding follistatin-related protein 3 – biochemical, small-molecule microarray, 635 nm fluorescence, primary screen (AID 1105);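 further: score merges emission near 667 nm and signal to noise per printed spot across three slides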
CONDITION DESCRIPTION: FSTL3 binding, higher = more signal

COMPOUND | composite z-score
CN(C)C(=O)[C@]1(Cc2ccccc2)N=C(c2ccc(OCCCO)cc2)O[C@@H]1c1ccccc1CN=[N+]=[N-] | 0.741
C=CCC(OC(C)=O)[C@@H]1[C@@H](N(Cc2cccc3ccccc23)C(=O)c2ccc(-c3ccccc3)cc2)c2cc(OCCCO)ccc2N1C(=O)Cc1ccc2ccccc2c1 (stereo partly drawn) | 0.228
COC(=O)[C@@]1(Cc2ccccc2)[C@H]2c3cc(C(=O)N(C)C)n(CCSC(=N)N)c3C[C@H]2CN1C(=O)c1ccccc1 | -0.406

###

# reported composite z-score; entries follow
STUDY TARGET: Carbonic anhydrase 2 (Homo sapiens)
EXPERIMENT SUMMARY: compounds binding carbonic anhydrase 2 – biochemical, small-molecule microarray, Alexa647-labelled CAII, profiling panel (AID 1122)
CONDITION DESCRIPTION: CAII-A647 binding fluorescence, higher = more signal
PROPERTY LABEL: composite z-score

STRUCTURE STRING | REPORTED RESULT
O=C1O[C@H](c2ccccc2)[C@H](c2ccccc2)N2[C@H]1[C@@H](C(=O)O)[C@]1(C(=O)Nc3ccc(C#CCCO)cc31)[C@H]2c1ccc(OCCO)cc1 | 0.596
C=CCNC(=O)[C@H]1[C@@H]2C(=O)O[C@@H](c3ccccc3)[C@@H](c3ccccc3)N2[C@@H](c2ccccc2OCCO)[C@]12C(=O)N(C(=O)OCCOC)c1ccc(C#Cc3ccc(OC)cc3)cc12 | 0.609
CC(C)N1C(=O)c2ccccc2[C@@H](C(=O)NCC(F)(F)F)[C@@H]1c1ccc(CO)cc1 | 0.587

###

Parameter: z-score. Scope: all listed entries.
EXPERIMENT SUMMARY: changes in parasitized red cell lysis, either direction – P. falciparum Indochina, OD700, 3 h, PSAC antagonist project, primary screen (AID 1156)
CONDITION DESCRIPTION: P. falciparum-infected erythrocytes, osmotic lysis, higher = more signal, called active from +8 up or from −8 down

MOLECULE | z-score
O=C1N(CCS(=O)(=O)c2ccccc2)c2ccccc2C[C@]12N=C(c1ccc(OCCCO)cc1)O[C@@H]2c1ccccc1 | 1.85
O=C1O[C@@H](c2ccccc2)[C@@H](c2ccccc2)N2[C@@H](c3ccccc3OCCO)[C@]3(C(=O)Nc4ccc(C#CCCO)cc43)[C@@H](C(=O)NC[C@H](O)c3ccccc3)[C@H]12 | -1.33
C=C(COC)C(=O)CC[C@@H](OC(=O)c1ccccc1-c1ccccc1C(=O)O)c1ccc(OCCO)cc1 | 0.489
COCCOC(=O)N1C(=O)[C@@]2(c3cc(C#CC4(O)CCCCCC4)ccc31)[C@H](c1ccc(O)cc1)N1[C@H](c3ccccc3)[C@H](c3ccccc3)OC(=O)[C@H]1[C@@H]2C(=O)N1CCCCCCC1 | 0.0786
CC(C)(C)N1CC=CC23O[C@@H]4C=CCOC(=O)[C@@H]4[C@H]2C(=O)N(CCO)[C@@H]3C1=O (stereo not given in full) | 0.0221
Cc1ccc(S[C@]2(C(=O)NCCCN(C)C)CC(=O)N(Cc3ccccc3C(F)(F)F)[C@@H]2c2ccc(CO)cc2I)cc1 | 0.32
CC(C)NC(=O)[C@@]1(C)c2ccccc2C(=O)N(Cc2ccccc2)[C@H]1c1ccc(CO)cc1 | -0.171
O=C1[C@H]2C=C(I)[C@H](C[C@@H]2OCCCCCCO)[C@@]12CO2 | 0.487
C=C(/C(=C/C[C@@H](OC(C)=O)c1cccc(OCCO)c1)c1cnc2ccccc2c1)C(C)C | 1.24
Cc1ccc(S[C@]2(C(=O)NC3CC3)CC(=O)N(C(C)C)[C@@H]2c2ccc(CO)cc2I)cc1 | 0.927
COCCCNC(=O)[C@@]1(CCS(=O)(=O)c2ccccc2)COC(c2ccc(OCCCO)cc2)=N1 | 0.764
COc1ccc(C(O)C2C=CC3C(=O)NC(=O)C3N2Nc2ccc(Cl)cc2Cl)c2ccccc12 (stereo not given) | -0.46
COC(=O)[C@]1(CCC(=O)OC(C)(C)C)N=C(c2ccc(OCCCO)cc2)O[C@@H]1c1ccccc1N=[N+]=[N-] | 1.64
CC(C)C[C@@H]1NC(=O)[C@@]23C(=O)N[C@@H](Cc4ccccc4)C2[C@H](C)[C@@]2(C)O[C@H]2C3/C=C/C/C=C\CNC(=O)CNC1=O (stereo not given in full) | -0.023
COc1ccc(C(=O)Nc2ccc(CN3C(=O)[C@@]4(O[C@@H](CCn5cc(CCO)nn5)[C@H]([Si](C)(C)c5ccc(OC)cc5)[C@H]4C)c4ccccc43)cc2)cc1 | 2.35
